- Test system: Mycobacterium tuberculosis
- TEST_SUMMARY: Antimycobacterial activity against drug-sensitive Mycobacterium tuberculosis H37Rv by microplate alamar blue assay
- Assay type: functional, organism-based
MEASURED_PARAMETER: IC50 (µM)
Record the value in µM, omitting the unit from your answer.

## Task Request the reported IC50 associated with CC(=O)NNC(=O)c1cc(C23CC4CC(CC(C4)C2)C3)c2ccccc2n1
## Result 0.0871

## Task Again, but for CCCCNNC(=O)c1cc(C23CC4CC(CC(C4)C2)C3)c2ccccc2n1
## Result 13.5

###

- System: Mycobacterium tuberculosis
- TEST_SUMMARY: Antimycobacterial activity against drug-sensitive Mycobacterium tuberculosis H37Rv by microplate alamar blue assay
- Format: functional, organism-based
pIC50: −log10 of the molar value.
Lab note: anything with pIC50 at or over 5 counts as 1; the rest go in -1.

## Task Does the compound O=C(NNC1CCCC1)c1cc(C23CC4CC(CC(C4)C2)C3)c2ccccc2n1 have recorded pIC50 that is 5 or more?
## Result 1

## Task Again, but for CC(C)(C)/C=N/NC(=O)c1cc(C23CC4CC(CC(C4)C2)C3)c2ccccc2n1
## Result -1

## Task Again, but for O=C(N/N=C/c1cccs1)c1cc(C23CC4CC(CC(C4)C2)C3)c2ccccc2n1
## Result 1

###

- System: Mycobacterium tuberculosis
- TEST_SUMMARY: Antimycobacterial activity against drug-sensitive Mycobacterium tuberculosis H37Rv by microplate alamar blue assay
- Format: functional, organism-based
// returns condition not met unless IC50 is strictly below 8 µM, in which case condition met

Check out these entries, answers already filled in.
{"SMILES_STRUCTURE": "O=C(N/N=C/c1ccc(O)cc1)c1cc(C23CC4CC(CC(C4)C2)C3)c2ccccc2n1", "LABEL": "condition met"}
{"SMILES_STRUCTURE": "NNC(=O)c1cc(C23CC4CC(CC(C4)C2)C3)c2ccccc2n1", "LABEL": "condition met"}
{"SMILES_STRUCTURE": "CCCNNC(=O)c1cc(C23CC4CC(CC(C4)C2)C3)c2ccccc2n1", "LABEL": "condition met"}
{"SMILES_STRUCTURE": "O=C(N/N=C/c1c(F)c(F)c(F)c(F)c1F)c1cc(C23CC4CC(CC(C4)C2)C3)c2ccccc2n1", "LABEL": "condition not met"}
{"SMILES_STRUCTURE": "O=C(NN(CCc1ccccc1)CCc1ccccc1)c1cc(C23CC4CC(CC(C4)C2)C3)c2ccccc2n1", "LABEL": "condition not met"}

## Task Lab note: confirm whether the reported IC50 for this compound is below 8 µM, equality not counting. compound: O=CNNC(=O)c1cc(C23CC4CC(CC(C4)C2)C3)c2ccccc2n1
## Result condition not met

## Task Again, but for O=C(NNc1cccc(F)c1)c1cc(C23CC4CC(CC(C4)C2)C3)c2ccccc2n1
## Result condition met

## Task Again, but for O=C(N/N=C/c1ccnc2cc(Cl)ccc12)c1cc(C23CC4CC(CC(C4)C2)C3)c2ccccc2n1
## Result condition met

## Task Again, but for CN(C)c1ccc(/C=N/NC(=O)c2cc(C34CC5CC(CC(C5)C3)C4)c3ccccc3n2)c2ccccc12
## Result condition met

## Task Again, but for O=C(N/N=C/c1c2ccccc2cc2ccccc12)c1cc(C23CC4CC(CC(C4)C2)C3)c2ccccc2n1
## Result condition met

## Task Again, but for CCCCCCNNC(=O)c1cc(C23CC4CC(CC(C4)C2)C3)c2ccccc2n1
## Result condition met

## Task Again, but for O=C(NN(C(=O)c1ccccc1)C(=O)c1ccccc1)c1cc(C23CC4CC(CC(C4)C2)C3)c2ccccc2n1
## Result condition not met

## Task Again, but for CC(C)/C=N/NC(=O)c1cc(C23CC4CC(CC(C4)C2)C3)c2ccccc2n1
## Result condition not met
